Overview of reported melting point across a group of molecules:

{"columns": ["molecule", "melting point"],
 "data": [
  ["COC(=O)c1c(Cc2cnc(OC)nc2)c(=O)c2ccc(F)cc2n1-c1ccccc1 [Compound 125]", "206 to 207 °C"],
  ["COC(=O)c1c(CN2CCS(=O)(=O)CC2)c(=O)c2ccc(F)cc2n1-c1ccccc1 [Compound 132]", "119 to 120 °C"],
  ["Nc1cccc(-n2c(-c3ncco3)c(Cc3ccccc3)c(=O)c3ccc(Cl)cc32)n1 [Compound 141]", "279.3 to 282.8 °C"],
  ["COC(=O)c1c(Cc2ccc(S(=O)(=O)C(C)CO)cc2)c(=O)c2ccc(Cl)cc2n1-c1ccccc1 (stereo not drawn) [Compound 117]", "175.3 to 180.3 °C"],
  ["COC(=O)c1c(Cc2ccc(S(=O)(=O)NCCO)cc2)c(=O)c2ccc(Cl)cc2n1-c1ccccc1 [Compound 65]", "191.5 to 193.1 °C"],
  ["COC(=O)c1c(Cc2ccc(S(=O)(=O)N(C)C)cc2)c(=O)c2ccc(Cl)cc2n1-c1ccccc1 [Compound 32]", "218.1 to 219.5 °C"]
]}

# lookup: melting point of COC(=O)c1c(Cc2ccc(S(=O)(=O)C(C)CO)cc2)c(=O)c2ccc(F)cc2n1-c1ccccc1 (stereo not drawn) [Compound 118] 193.6 to 194.9 °C

Similarly, CCC(=O)c1c(Cc2ccc(S(=O)(=O)N3CCN(C)CC3)cc2)c(=O)c2ccc(Cl)cc2n1-c1ccccc1 [Compound 80] ? > 300 °C

* * *

# melting point listing for each entry below

Using the record for COC(=O)c1c(Cc2ccc(C#N)cc2)c(=O)c2ccc(F)cc2n1-c1ccccc1 , report its melting point. 218 to 219 °C

What do you have for COC(=O)c1c(Cc2ccc(OC)nc2)c(=O)c2ccc(C)nc2n1-c1ccccc1 ? 176 to 177 °C

Same read-out for CCOC(=O)c1c(Cc2ccccc2)c(=O)c2ccc(Cl)cc2n1-c1ccccc1 ? 179 to 180 °C

Can you handle COC(=O)c1c(Cc2ccc(C(=O)CBr)cc2)c(=O)c2ccc(C)nc2n1-c1ccccc1 next? 189 to 191.1 °C

Moving on to the next compound: COC(=O)c1c(CN2CCn3c(nnc3C(F)(F)F)C2)c(=O)c2ccc(F)cc2n1-c1ccccc1 107 to 110 °C

Now consider CC(=O)c1c(Cc2ccc(S(=O)(=O)N3CCC(O)CC3)cc2)c(=O)c2ccc(Cl)cc2n1-c1ccccc1 and answer again. 145.5 to 147.2 °C

Same for CCOC(=O)C1CCN(Cc2c(C(=O)OC)n(-c3ccccc3)c3cc(F)ccc3c2=O)CC1 136 to 137 °C

Cited source: patent US8163906B2
